test: In vivo pharmacokinetic experiments in Beagle dogs (oral); details: male, dog, plasma, 2 mg/kg
Property Label: Cmax

>>> result_value("[2H]C([2H])([2H])NC(=O)c1nnc(NC(=O)C2CC2)cc1Nc1nc(N)c(Br)cc1[S@@](C)(=O)=NC [Example 30]")
"625 ng/mL"

Attention now shifts to the item below.
Entry under test: [2H]C([2H])([2H])NC(=O)c1nnc(NC(=O)C2CC2)cc1Nc1nc(N)c(Cl)cc1[S@@](C)(=O)=NC [Example 28] . Its Cmax was 485 ng/mL

* * *

assay: In vivo pharmacokinetic experiment in rats (oral); set-up: species or system SD rats; conditions: male, SD, rat, plasma, 5 mg/kg
Property Label: Cmax (ng/mL)
Provide the reading as a plain figure in ng/mL.

>>> result_value("[2H]C([2H])([2H])NC(=O)c1nnc(NC(=O)C2CC2)cc1Nc1nc(N)c(Cl)cc1[S@@](C)(=O)=NC")
651

Attention now shifts to the item below.
Entry under test: [2H]C([2H])([2H])NC(=O)c1nnc(NC(=O)C2CC2)cc1Nc1cccc(-c2ncn(C)n2)c1OC [BMS-986165, Deucravacitinib, reference compound] . Its Cmax was 229
